Provenance of the data: PubChem BioAssay

Subject Of Test: Neurogenic locus notch homolog protein 3 (Homo sapiens)
Experimental Protocol: small molecules binding NOTCH3 protein – biochemical, 635/667 nm fluorescence, primary screen (AID 1096)
Condition Label: small-molecule microarray, 635 nm fluorescence, higher = more signal
Cut-off 0.1 on composite z-score, inclusive. At or above means Criterion met; below means Criterion not met.

Look over these answered cases.
Molecule	Answer Label
COC(=O)[C@@]1(Cc2ccc(F)cc2)[C@H]2c3cc(C(=O)N4CCCC4)n(Cc4ccc(C)c(F)c4F)c3C[C@H]2CN1C(=O)c1ccccc1	Criterion not met
COc1ccc([Si](C)(C)[C@@H]2[C@@H](CCO)O[C@]3(C(=O)N(Cc4ccccc4)c4ccc(NC(=O)[C@H](C)O)cc43)[C@H]2C)cc1	Criterion met
C=CCOC(=O)[C@@]1(Cc2ccccc2)C[C@H]2CO[C@H](c3ccc(OC)cc3)N2C1=O	Criterion met
Cc1ccc(S[C@]2(C(=O)NC(C)C)CC(=O)N(Cc3cc(C(F)(F)F)cc(C(F)(F)F)c3)[C@@H]2c2ccc(CO)cc2)cc1	Criterion not met

Check the entry CC(C)C(CO)N1C(=O)[C@@H]2C3C(=O)OCCC/C=C\[C@H]3OC23C=CCN(Cn2nnc4ccccc42)C(=O)[C@@H]13 (some centres not stated) : does composite z-score equal or exceed 0.1?
Criterion met

Check the entry CC(c1ccccc1)C(O)C1C=CC2C(=O)N(C)C(=O)C2N1Nc1ccccc1 (configuration not stated) : does composite z-score equal or exceed 0.1?
Criterion met

Check the entry COc1cc(NN2C(C(O)c3ccco3)C=CC3C(=O)N(C)C(=O)C32)cc(OC)c1OC (configuration not stated) : does composite z-score equal or exceed 0.1?
Criterion not met
